FITC+/Alexa 647+ cell rate ratio values by entry
# SUBJECT OF TEST: T1, Mutant 2 of human SPNS2 (FLAG tag inserted in extracellular loop 5) (human, UniProt Q8IVW8 1-549)
# T1 construct: on HEK293 cells; also called extracellular loop 5 mutant
# T1 sequence: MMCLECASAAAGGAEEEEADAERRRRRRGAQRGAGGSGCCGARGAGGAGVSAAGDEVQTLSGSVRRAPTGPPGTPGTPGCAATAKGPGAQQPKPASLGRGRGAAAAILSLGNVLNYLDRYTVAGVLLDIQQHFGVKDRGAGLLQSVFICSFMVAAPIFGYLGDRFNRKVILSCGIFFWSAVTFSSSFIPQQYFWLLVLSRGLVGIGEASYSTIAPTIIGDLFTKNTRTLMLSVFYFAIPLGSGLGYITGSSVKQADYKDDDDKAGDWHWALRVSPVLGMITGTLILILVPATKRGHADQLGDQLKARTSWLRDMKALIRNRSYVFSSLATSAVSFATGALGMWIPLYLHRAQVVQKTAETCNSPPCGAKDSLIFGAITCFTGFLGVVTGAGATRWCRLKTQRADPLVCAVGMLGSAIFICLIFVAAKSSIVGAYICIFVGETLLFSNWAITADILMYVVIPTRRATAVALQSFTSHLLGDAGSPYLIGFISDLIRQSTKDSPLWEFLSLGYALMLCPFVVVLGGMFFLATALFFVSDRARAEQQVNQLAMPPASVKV
# PROCEDURE TEXT: flow cytometry, FLAG-insertion mutant

* 65-0810G (antibody, IgG2b, V domains shown) VH: EVHLVESGGGLVQPGRSMKLSCTASGFTFNNYYMAWVRQAPTKGLEWVASISTGGGYTYYRDSVKGRFTISRDNTGNTLYLQMDSLRSEDTATYYCARCWELPYWGQGVMVTVSS VL: QFVLTQPNSVSTNLGSTVKLSCRRSSGNIGNNYVNWYRQHEGRSPTTMIYRDDTRPDGVPNRFSGSIDRSSNSALLTINNVRPEDEAYYFCQSYSGSIYIFGGGTKLTVL | < 0.1 ratio

Continue with the binder presented below.
Record 37-0511F (antibody, IgG2b, V domains shown) VH: EVHLQQSGAALVRPRASVKLSCKVSGDSISRYYVHFVKQRPGQGLEWIGRIDPEDDTTKYSEKFKNRATLTADASSDTASLILSGLTSDDTATYFCSTLTGLDYWGQGVMVTVSS VL: DIQMTQSPPVLSTSVGDRVTLRCKPSQNVHSKLDWYQQKHGEAPKLLIYYTHNLQTGIPSRFSGSGSGTDYTLTISSLQPEDVATYYCFQYYSGWTFGGGTKLEMKR , field FITC+/Alexa 647+ cell rate ratio: < 0.1 ratio
